FYI, the data here is from patent US10039753B2.

Biological target: GST-tagged truncated LRRK2 (Homo sapiens, UniProt Q5S007)
Construct: GST-tagged truncated LRRK2 from Invitrogen (Cat # PV4874); GST; purchased Invitrogen PV4874
Sequence (Q5S007 970-2527 limits assumed): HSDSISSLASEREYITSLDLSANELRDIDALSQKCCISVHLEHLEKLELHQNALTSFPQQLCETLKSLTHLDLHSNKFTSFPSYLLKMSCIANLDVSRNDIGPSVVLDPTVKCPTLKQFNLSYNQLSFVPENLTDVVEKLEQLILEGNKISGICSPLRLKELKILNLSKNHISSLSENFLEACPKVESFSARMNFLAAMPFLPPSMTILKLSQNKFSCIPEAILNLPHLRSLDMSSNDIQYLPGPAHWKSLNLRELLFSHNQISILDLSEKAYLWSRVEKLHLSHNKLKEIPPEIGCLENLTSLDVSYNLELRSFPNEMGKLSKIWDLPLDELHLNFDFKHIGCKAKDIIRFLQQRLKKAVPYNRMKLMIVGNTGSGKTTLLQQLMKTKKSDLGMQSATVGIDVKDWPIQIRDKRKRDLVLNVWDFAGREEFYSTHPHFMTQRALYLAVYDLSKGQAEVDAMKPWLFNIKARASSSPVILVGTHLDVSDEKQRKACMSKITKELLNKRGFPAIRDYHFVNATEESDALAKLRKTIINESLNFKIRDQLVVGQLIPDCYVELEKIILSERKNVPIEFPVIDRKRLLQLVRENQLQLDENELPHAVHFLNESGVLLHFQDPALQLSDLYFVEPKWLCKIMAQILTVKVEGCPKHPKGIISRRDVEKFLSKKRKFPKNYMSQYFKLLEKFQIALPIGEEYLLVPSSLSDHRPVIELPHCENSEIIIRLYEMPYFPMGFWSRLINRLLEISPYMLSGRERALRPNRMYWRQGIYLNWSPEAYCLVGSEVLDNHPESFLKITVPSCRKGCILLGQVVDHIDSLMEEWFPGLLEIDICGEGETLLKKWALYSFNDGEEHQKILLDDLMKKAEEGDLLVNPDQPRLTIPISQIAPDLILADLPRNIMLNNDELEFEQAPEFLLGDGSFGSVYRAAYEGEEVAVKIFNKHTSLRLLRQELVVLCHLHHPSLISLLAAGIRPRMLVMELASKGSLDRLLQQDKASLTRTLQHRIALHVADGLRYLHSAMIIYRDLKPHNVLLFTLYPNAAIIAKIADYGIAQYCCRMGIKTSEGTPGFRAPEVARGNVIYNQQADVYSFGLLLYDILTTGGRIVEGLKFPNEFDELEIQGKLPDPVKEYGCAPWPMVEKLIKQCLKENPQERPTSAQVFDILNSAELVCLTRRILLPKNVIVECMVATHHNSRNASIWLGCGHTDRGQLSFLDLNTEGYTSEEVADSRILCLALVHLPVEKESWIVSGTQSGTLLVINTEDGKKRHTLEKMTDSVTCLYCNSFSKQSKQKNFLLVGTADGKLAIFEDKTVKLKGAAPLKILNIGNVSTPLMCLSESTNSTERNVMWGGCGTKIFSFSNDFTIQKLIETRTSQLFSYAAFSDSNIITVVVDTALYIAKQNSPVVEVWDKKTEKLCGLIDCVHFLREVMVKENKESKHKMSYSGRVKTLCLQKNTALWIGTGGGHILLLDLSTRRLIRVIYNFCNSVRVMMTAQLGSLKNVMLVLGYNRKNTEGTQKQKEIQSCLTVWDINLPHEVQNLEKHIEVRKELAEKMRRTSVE
Experiment: LRRK2 Assay, Format 1 (Lantha Screen), WT
Assay type: biochemical
Settings: geometric mean of 2-4 determinations unless otherwise indicated
Classify: condition met when IC50 is strictly less than 10 nM; condition not met when IC50 is not.

Query: API: query returns whether the compound falls strictly under 10 nM in IC50. Query: Cc1nc(Cc2nc3cnc4ccc(Cl)cc4c3n2C2C[C@@H](C)[C@@H](F)C2)no1 (single isomer, unassigned)
Result: condition not met

Query: API: query returns whether the compound falls strictly under 10 nM in IC50. Query: C[C@@H]1C[C@H](n2c(Cc3cc(C4CC4)on3)nc3cnc4ccc(C#N)cc4c32)CCO1
Result: condition met

Query: API: query returns whether the compound falls strictly under 10 nM in IC50. Query: Cc1cc(Cc2nc3cnc4ccc(Cl)cc4c3n2[C@@H]2CCO[C@H](CC#N)C2)no1 (single isomer, unassigned; ent-1)
Result: condition met
